Quick reference: inhibition of the listed items.
# Assay system: Serine/threonine-protein kinase MARK2 (Homo sapiens) (UniProt Q7KZI7)
# Sequence (Q7KZI7 whole entry): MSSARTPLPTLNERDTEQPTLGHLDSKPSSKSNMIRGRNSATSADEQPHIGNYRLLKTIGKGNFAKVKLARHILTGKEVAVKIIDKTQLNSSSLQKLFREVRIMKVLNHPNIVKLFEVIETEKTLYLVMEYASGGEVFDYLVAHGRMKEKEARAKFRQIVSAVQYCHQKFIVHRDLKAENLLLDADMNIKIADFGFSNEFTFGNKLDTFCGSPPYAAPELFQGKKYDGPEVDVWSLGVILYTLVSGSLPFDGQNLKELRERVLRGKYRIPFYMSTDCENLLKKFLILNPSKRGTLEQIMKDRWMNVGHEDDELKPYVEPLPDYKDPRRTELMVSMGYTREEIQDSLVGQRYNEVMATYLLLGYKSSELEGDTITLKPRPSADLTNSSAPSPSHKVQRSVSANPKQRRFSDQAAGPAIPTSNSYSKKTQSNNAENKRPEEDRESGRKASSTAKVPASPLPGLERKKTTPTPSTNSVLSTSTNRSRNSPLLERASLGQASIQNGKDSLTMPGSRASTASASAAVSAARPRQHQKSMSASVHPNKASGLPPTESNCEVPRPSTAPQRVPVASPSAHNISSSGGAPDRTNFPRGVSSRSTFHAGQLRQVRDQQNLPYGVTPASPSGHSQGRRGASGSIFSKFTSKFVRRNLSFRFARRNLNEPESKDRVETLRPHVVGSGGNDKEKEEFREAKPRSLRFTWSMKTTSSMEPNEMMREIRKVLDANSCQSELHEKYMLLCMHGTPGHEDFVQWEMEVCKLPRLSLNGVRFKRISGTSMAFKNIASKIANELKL
# Setup conditions: at 1 µM
# Description: GSK_PKIS: PAR-1Balpha mean inhibition at 1 uM [Nanosyn]
Report the value in % with no unit label.

Here's what some known entries look like.
>  <Compound smiles>
CCN1CCC(C(=O)Nc2n[nH]c3nnc(-c4cccc(F)c4F)cc23)CC1

>  <inhibition [%]>
1.95

$$$$
>  <Compound smiles>
CCOc1ccc2c(-c3ccnc(Nc4cc(OC)cc(C(F)(F)F)c4)n3)cnn2n1

>  <inhibition [%]>
1.23

$$$$
>  <Compound smiles>
O=C(O[C@H]1CN[C@H](C#Cc2cc3ncnc(Nc4ccc5c(cnn5Cc5ccccc5)c4)c3s2)C1)N1CCOCC1

>  <inhibition [%]>
1.58

$$$$
>  <Compound smiles>
c1cnn2ncc(-c3ccnc(NCCCN4CCOCC4)n3)c2c1

>  <inhibition [%]>
-1.01

$$$$
>  <Compound smiles>
CS(=O)(=O)CCNCc1ccoc1-c1ccc2ncnc(Nc3ccc(OCc4ccccc4)cc3)c2c1

>  <inhibition [%]>
-2.18

$$$$
>  <Compound smiles>
N#Cc1ccc2c(-c3ccnc(NC4CC4)n3)c(-c3ccc(F)cc3)nn2c1

>  <inhibition [%]>
0.62

$$$$
>  <Compound smiles>
CNC(=O)c1ncccc1Nc1nc(Nc2cc3c(cc2OC)CCCN3C(=O)CN(C)C)nc2[nH]ccc12

>  <inhibition [%]>
4.82

$$$$

Moving on to the next molecule.
The recorded inhibition for entry `O=C(O[C@H]1CN[C@H](C#Cc2cc3ncnc(Nc4ccc5c(ccn5Cc5cc(F)ccc5F)c4)c3s2)C1)N1CCOCC1` equals -0.27
